Experiment: growth inhibition of GSK3B-pretreated HCT116 cells – cell-based, CellTiter-Glo, 0.2 to 20 µM (AID 1117336)
Conditions: HCT116 viability after GSK3B inhibitor, at 20 µM, stronger effect = higher value
measured metric: viability decrease (%)
Provide the reading as a plain figure in %.

Need viability decrease of NS(=O)(=O)c1cc2c(cc1Cl)NC=NS2(=O)=O , thanks.
-4.3

Need viability decrease of Cc1nc2ccccn2c(=O)c1CCN1CCC(C(=O)c2ccc(F)cc2)CC1 , thanks.
24.3

Need viability decrease of O=C1Nc2ccccc2C1(c1ccc(O)cc1)c1ccc(O)cc1 , thanks.
54.5

Need viability decrease of CCC(=O)O[C@]1(C(=O)COC)[C@@H](C)C[C@H]2[C@@H]3CCC4=CC(=O)C=C[C@]4(C)C3(F)[C@@H](O)C[C@@]21C (some centres undefined) , thanks.
-69.2

Need viability decrease of CCN1CCN(C(=O)N[C@@H](C(=O)N[C@@H]2C(=O)N3[C@@H]2SC(C)(C)[C@H]3C(=O)O)c2ccccc2)C(=O)C1=O , thanks.
-21.3

Need viability decrease of COc1cc(S(N)(=O)=O)cc(C(=O)O)c1OC , thanks.
16.8

Need viability decrease of CC(=O)OCC[N+](C)(C)C , thanks.
-38.1

Need viability decrease of CCOC(=O)c1ccc(OCCN2C[C@H](O)[C@@H](O)[C@H](O)[C@H]2CO)cc1 , thanks.
-17.2

Need viability decrease of CCCc1cc(=O)[nH]c(=S)[nH]1 , thanks.
-14.4

Need viability decrease of N=C(N)c1ccc(OCCCCCOc2ccc(C(=N)N)cc2)cc1 , thanks.
0.4

Need viability decrease of CCOC(=O)NNc1ccc(N(CC)CC(C)O)nn1 (centres undefined) , thanks.
-1

Need viability decrease of CCCCCC1Nc2cc(C(F)(F)F)c(S(N)(=O)=O)cc2S(=O)(=O)N1 (centres undefined) , thanks.
13.4

Need viability decrease of CCN1C(=O)c2ccccc2C1Nc1ccc(OCCN2CCCCC2)cc1 (centres undefined) , thanks.
10.5

Need viability decrease of Cc1cc(NS(=O)(=O)c2ccc(N)cc2)nc(C)n1 , thanks.
0.6

Need viability decrease of O=C(O)c1cc(O)c2c(c1)[O][Bi][O]2 , thanks.
-0.3

Need viability decrease of COc1ccc([C@@H]2Sc3ccccc3N(CCN(C)C)C(=O)[C@@H]2OC(C)=O)cc1 , thanks.
17

Need viability decrease of CNCCCC12CCC(c3ccccc31)c1ccccc12 , thanks.
55.6

Need viability decrease of CCCc1nc2c(C)cc(-c3nc4ccccc4n3C)cc2n1Cc1ccc(-c2ccccc2C(=O)O)cc1 , thanks.
-22.6

Need viability decrease of O=C(Oc1ccccc1)c1ccccc1O , thanks.
-4.35

Need viability decrease of CCOC(=O)OCC/C(SC(=O)OCC)=C(\C)N(C=O)Cc1cnc(C)nc1N , thanks.
2.5

Need viability decrease of CC(C)Cc1ccc(C(C)C(=O)OCc2ccccn2)cc1 (centres undefined) , thanks.
-24

Need viability decrease of CN(C)CCOC(c1ccc(Cl)cc1)c1ccccn1 (centres undefined) , thanks.
8.6

Need viability decrease of NS(=O)(=O)c1cc2c(cc1Cl)NCNS2(=O)=O , thanks.
-1.55

Need viability decrease of CC(C)C[C@@H](N)C(=O)O , thanks.
-7.15

Need viability decrease of CCN1CCCC1CN (centres undefined) , thanks.
39.7

Need viability decrease of CC(CSC(=O)c1ccccc1)C(=O)N1C[C@@H](Sc2ccccc2)C[C@H]1C(=O)O (some centres undefined) , thanks.
-18.3

Need viability decrease of CCOC(=O)c1cc(=O)c2c(OCC(COc3cccc4oc(C(=O)OCC)cc(=O)c34)OC(=O)[C@@H](N)CCCCN)cccc2o1 , thanks.
-30

Need viability decrease of c1ccc2[nH]ccc2c1 , thanks.
-4.45

Need viability decrease of Cc1ccc(C(=O)C(=O)O)cc1C , thanks.
-10.8

Need viability decrease of CC(C)NC(=O)c1ccc(C=O)cc1 , thanks.
18.8

Need viability decrease of CCOC(=O)C(=O)CCc1ccccc1 , thanks.
-4.7

Need viability decrease of CC(C)(C)c1nnc(NS(=O)(=O)c2ccccc2)s1 , thanks.
-0.1

Need viability decrease of CCCC(CCC)C(N)=O , thanks.
1.8

Need viability decrease of Cc1onc(-c2c(Cl)cccc2Cl)c1C(=O)N[C@@H]1C(=O)N2[C@@H]1SC(C)(C)[C@@H]2C(=O)O , thanks.
-15.4

Need viability decrease of Cc1c(F)cc2c(=O)c(C(=O)O)cn3c2c1CCC3C (centres undefined) , thanks.
-181

Need viability decrease of Cc1cc(O)cc2c1O[C@](C)(CCC[C@H](C)CCC[C@H](C)CCCC(C)C)CC2 , thanks.
12.5

Need viability decrease of CCC(=O)O[C@]1(C(=O)CCl)[C@@H](C)C[C@H]2[C@@H]3CCC4=CC(=O)C=C[C@]4(C)[C@@]3(F)[C@@H](O)C[C@@]21C , thanks.
-89.8

Need viability decrease of NC(=O)N1c2ccccc2CC(=O)c2ccccc21 , thanks.
-2.9

Need viability decrease of O=C(O)Cc1csc(-c2ccc(Cl)cc2)n1 , thanks.
-4.4

Need viability decrease of CC(CCc1ccc2c(c1)OCO2)NN (centres undefined) , thanks.
57.8

Need viability decrease of COC(=O)c1cc(Cl)ccc1OC , thanks.
1.2

Need viability decrease of CC[N+](C)(C)c1cccc(O)c1 , thanks.
-29

Need viability decrease of c1ccc2sc(SSc3nc4ccccc4s3)nc2c1 , thanks.
-0.8

Need viability decrease of CO[C@@H]1[C@@H](O[C@@H]2O[C@H](C)[C@@H](O[C@H]3C[C@@](C)(O)[C@@H](O)[C@H](C)O3)[C@H](N(C)C)[C@H]2O)[C@@H](CC=O)C[C@@H](C)[C@@H](O[C@@H]2CC[C@H](N(C)C)[C@@H](C)O2)/C=C/C=C/C[C@@H](C)OC(=O)C[C@H]1OC(C)=O , thanks.
0.2
